Origin of values: the supplement of paper PMC6331611

Test system: Salmonella enterica serovar Typhimurium SL1344
Assay Protocol: normalized intracellular growth (luminescence, IQM-normalized) in RAW264.7 macrophages (fraction of plate interquartile mean); higher = more bacterial growth (less inhibition)
Experimental Conditions: 10 µM, time point: Tfinal (~6 h)
In all, about 1,600 compounds were measured (“normalized intracellular growth (luminescence, IQM-normalized) in RAW264.7 macrophages”: median about 1, lowest 2% from about 0.43 on). Many of the other results were omitted from the sample, so the lowest values are more common in it than they were.
Please enter label 1 where normalized intracellular growth is greater than or equal to 0.8, and label 0 where it is lower.

# bool: normalized intracellular growth of CCN1C[C@]2(COC)[C@H](O)C[C@H](OC)[C@@]34[C@@H]5C[C@@]6(O)[C@H](OC(=O)c7ccccc7)[C@@H]5[C@@](OC(C)=O)([C@@H]([C@H](OC)[C@H]23)[C@@H]14)[C@@H](O)[C@@H]6OC >= 0.8
label 1

Could you do the same for Oc1cc(Cl)ccc1Oc1ccc(Cl)cc1Cl , please?
label 0

Could you do the same for N=C1NC(=O)N2CC12 (stereo not drawn) , please?
label 1

Could you do the same for CC[C@@H](c1cccc(O)c1)[C@@H](C)CN(C)C , please?
label 0

Could you do the same for O=[N+]([O-])OCC(CO[N+](=O)[O-])O[N+](=O)[O-] , please?
label 0

Could you do the same for CCCCOC(=O)c1ccccc1C(=O)OCCCC , please?
label 1

Could you do the same for CCn1cc(C(=O)O)c(=O)c2cc3c(cc21)OCO3 , please?
label 0

Could you do the same for OC[C@@H](O)[C@H]1O[C@@H]2O[C@H](C(Cl)(Cl)Cl)O[C@@H]2[C@H]1O , please?
label 1

Could you do the same for CC(=O)[O][Hg][c]1ccccc1 , please?
label 0

Could you do the same for Oc1ccc(Cl)cc1 , please?
label 1

Could you do the same for CN1C[C@H](C(=O)N[C@]2(C)O[C@@]3(O)[C@@H]4CCCN4C(=O)[C@H](Cc4ccccc4)N3C2=O)C=C2c3cccc4[nH]cc(c34)C[C@H]21 , please?
label 0

Could you do the same for CC(O)CN1CCN(CC(=O)[O-])CCN(CC(=O)[O-])CCN(CC(=O)[O-])CC1.[Gd+3] (stereo not drawn) , please?
label 1
